target: Prostaglandin D2 receptor (Mus musculus); assay: Inhibition of mouse Prostanoid DP receptor
Sequence (P70263 whole entry): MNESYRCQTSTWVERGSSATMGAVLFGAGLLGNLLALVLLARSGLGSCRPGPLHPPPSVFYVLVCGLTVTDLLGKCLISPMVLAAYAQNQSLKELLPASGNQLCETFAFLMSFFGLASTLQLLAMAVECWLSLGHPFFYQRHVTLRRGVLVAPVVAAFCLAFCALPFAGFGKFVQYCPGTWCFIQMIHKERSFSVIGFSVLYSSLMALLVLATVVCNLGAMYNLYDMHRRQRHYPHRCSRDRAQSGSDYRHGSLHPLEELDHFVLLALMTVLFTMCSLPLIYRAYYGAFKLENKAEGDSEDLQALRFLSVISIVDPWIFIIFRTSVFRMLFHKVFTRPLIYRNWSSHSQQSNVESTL
metricName: IC50

Examples from the recorded data:
> print(dat)
                                   compound  metricname  assayresult
1  CCCCOc1ccc(C(=O)n2c(C)c(CC(=O)O)c3cc(O)ccc32)cc1        IC50      > 10 µM
2  CCCCOc1ccc(C(=O)n2c(C)c(CCCCC(=O)O)c3cc(OC)ccc32)cc1        IC50       4.5 µM
3  CCCCOc1ccc(C(=O)n2c(C)c(CC(=O)O)c3ccccc32)cc1        IC50       3.9 µM
4  COc1ccc2c(c1)c(CC(=O)O)c(C)n2C(=O)c1ccc(Cl)cc1        IC50      > 10 µM

Please give the measured IC50 for this molecule: `CCCCOc1ccc(C(=O)n2c(C)c(CC(=O)O)c3cc(OC)ccc32)cc1` 1.6 µM
